experiment: yeast display, Sf9 membrane polyspecificity reagent, FACS + sequencing; frameworks hold sequencing errors
resultType: polyreactivity (PSR sort gate)

[[record]]
sequence = "QVQLVESGGGLVQAGGSLRLSCAASGSTFFGYDMGWYRQAPGKERELVATINSGGSTYYADSVKGRFTISRDNAKNTVYLQMNSLKPEDTAVYYCAARPSYLYPYDRTGEYDYWGQGTQVTVSS"
result = "high polyreactivity"

[[record]]
sequence = "QVQLVESGGGLVQAGGSLRLSCAASGSIFYTYAMGWSRQAPGKEREFVAAITSSGGSTYYADSVKGRFTISRDNAKNTVYLQMNSLKPEDTAVYYCAADSGSTSEYEYWGQGTQVTVSS"
result = "low polyreactivity"

[[record]]
sequence = "QFQLVESGGGLVQAGGSLRLSCAASGSIFVTNAMGWYRQAPGKERELVAAISSGGNTNYADSVKGRFTISRDNAKNTVYLQMNSLKPEDTAVYYCAKDPDKVDFVDMDYWGQGTQVTVSS"
result = "low polyreactivity"

[[record]]
sequence = "QVQLVESGGGLVQAGGSLSLSCAAYGGIFPENAMGWYRLAPGKERELVAAMSRSGSSTYYADSVKGRFTISRDNAKNTVFLQMNSLKPEVTAVSYCAARGVKWGQGSQVTVSS"
result = "high polyreactivity"

[[record]]
sequence = "QVQLVESGGGLVQAGGSLRLSCAASGSTFDQNGMGWYRQAPGKERELVATISTSAGTYYADSVKGRFTISRDNAKNTVYLQMNSLKPEDTAVYYCNADLGGQYKEFDYWGQGTQVTVSS"
result = "low polyreactivity"

[[record]]
sequence = "QVQLVESGGGLVQAGGSLRLSCAASGRIFYAYAMGWYRQAPGKERELVAGISRGSSTNYADSVKGRFTISRDNAKNTVYLQMNSLKPEDTAVYYSAADVHRRGRYHSTYDYWGQGTQVTVSS"
result = "low polyreactivity"

[[record]]
sequence = "QVQLVESGGGLVQAGGSLRLSCAASGSTFGVYAMGWYRQAPGKEREFVAAITSSSGSTYYADSVKGRFTISRDNAKNTVYLQMNSLKPEDTAVYYCNVQGWTRSDAGRYDNMDYWGQGTQVTVSS"
result = "low polyreactivity"

[[record]]
sequence = "QVQLGESGGVLVQEGGSLRLSSAASGSILSKYAIGWYRQAPGKERELVAVITSNSGRKYYADYLKGRFTISRDNAKNTVYLQMNSLKPEDTAVYYCAAQRRSSQNYYWGQGTQVTVSS"
result = "high polyreactivity"

[[record]]
sequence = "QVQLVESGGGLVQAGGSLRLSCAASGSTFYPNAMGWYRQAPGKERELVADISYSGGRTYYADSVKGRFTISRDNAKNTVYLQMNSLKPEYTAVYYCAARKVTYHYQWMDYWGQGTQVTVSS"
result = "low polyreactivity"

[[record]]
sequence = "QVQHVESGGGLVHAGGSLRLSCAASGSIASYAMGWYRHATGKEKELVAGISWSGGSTYYADSVKGRFTISRDNAKNNVYLQMISLKPEDTAVYYCAARRFCPNRDSRMGYWGQGTQVTVSS"
result = "high polyreactivity"

[[record]]
sequence = "QVQLVESGGGLVQAGGSLRLSCAASGNTFDGYDMGWYRQAPGKERELVAAITNTGASTYYADSVKGRFTISRDNAKNTVYLQMNSLKPEDTAVYYCNAQDSYPEDRHGMSYWGQGTQVTVSS"
result = "low polyreactivity"

[[record]]
sequence = "QVQLVESGGGLVQAGGSLRLSCAASGFTFGYYVMGWYRQAPGKERELVAAITSGGRTKYADSVKGRFTISRDNAKNTVYLQMNSLKPEDTAVYYCAAKSRVHVDYWGQGTQVTVSS"
result = "high polyreactivity"

[[record]]
sequence = "QVQLVESGGGLVQAGGSLRLSCAASGRIFSLNAMGWYRQAPGKERELVAGIRKRGGSTYYADSVKGRFTISRDNAKNTVYLQMNSLKPEDTAVYYCAADRFAFYGRYRGPYYYWGHGTQVTVSS"
result = "high polyreactivity"

[[record]]
sequence = "QVQLVESGGGLVQAGGSLRLSCAASGLTFVRYTMGWYRQAPGKVRELVAAITWSGGSTYYADSVKGRFTISRDNAKNTVYLQMNSLKPQDTAVYYCAARHRYWYGVTVDYWGQGTHVTVSS"
result = "high polyreactivity"

